Listed next: entries and their corresponding logD.
Protocol details: Distribution coefficient, log D between 1-octonol and phosphate buffer at pH 7
Format: physicochemical
Condition: 1-octanol/phosphate buffer
Form: value (number only, do not type unit).

Would you please look over these solved cases?
>  <Smiles repr>
CCc1cc(-c2noc(-c3cc(C)nc(CN(C)CC(C)C)c3)n2)cc(C)c1OC[C@@H](O)CNC(=O)CO

>  <logD>
3.8

$$$$
>  <Smiles repr>
CCc1cc(-c2nc(-c3cc(C)c(OC[C@@H](O)CNC(=O)CO)c(CC)c3)no2)ccc1CN(C)C

>  <logD>
3.8

$$$$
>  <Smiles repr>
CCc1cc(-c2noc(-c3cc(C)cc(CN(C)C)c3)n2)cc(C)c1OC[C@@H](O)CNC(=O)CO

>  <logD>
2.8

$$$$
>  <Smiles repr>
CCc1cc(-c2noc(-c3cc(C)cc(CN(C)CC)c3)n2)cc(C)c1OC[C@@H](O)CNC(=O)CO

>  <logD>
3.4

$$$$

Could you now consider this next compound?
Q: Fill blank: measured logD of the compound CCc1cc(-c2noc(-c3cc(C)c(CN(C)C)s3)n2)cc(C)c1OC[C@@H](O)CNC(=O)CO is ____.
Ans: 3.2

----------
Study system: Sphingosine 1-phosphate receptor 1 (Homo sapiens, UniProt P21453)
Sequence (P21453 whole entry): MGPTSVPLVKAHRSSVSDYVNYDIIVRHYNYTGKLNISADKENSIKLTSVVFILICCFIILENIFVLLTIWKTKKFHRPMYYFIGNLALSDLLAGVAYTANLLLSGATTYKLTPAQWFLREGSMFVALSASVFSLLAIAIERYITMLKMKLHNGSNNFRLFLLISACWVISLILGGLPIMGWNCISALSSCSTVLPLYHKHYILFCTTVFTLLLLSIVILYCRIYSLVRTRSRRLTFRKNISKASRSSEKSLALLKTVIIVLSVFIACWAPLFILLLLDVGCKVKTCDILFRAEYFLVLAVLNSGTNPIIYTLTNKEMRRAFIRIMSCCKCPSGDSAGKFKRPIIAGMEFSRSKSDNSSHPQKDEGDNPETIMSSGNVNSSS
Protocol details: Agonist activity at human recombinant S1PR1 expressed in CHO cell membranes assessed as [35S]GTPgammaS binding preincubated for 30 mins followed by [35S]GTPgammaS addition measured after 1 hr by topcount analysis
# maps each entry to its pEC50
Kindly note that pEC50 refers to -log10 of the concentration in mol/L and answer with the value alone.

>  <Smiles repr>
CCc1cc(-c2nc(-c3cc(C)c(CCC(=O)NCCO)c(CC)c3)no2)cnc1N(C)C(C)C

>  <Observed>
8.29

$$$$
>  <Smiles repr>
CCc1cc(-c2noc(-c3ccc(CNC(C)C)s3)n2)cc(C)c1OC[C@@H](O)CNC(=O)CO

>  <Observed>
6.69

$$$$
>  <Smiles repr>
CCc1cc(-c2noc(-c3ccc(CN(C)C)cc3C)n2)cc(C)c1OC[C@@H](O)CNC(=O)CO

>  <Observed>
6.64

$$$$

Q: Returns the measured pEC50 for the input molecule. Input: CCc1cc(-c2noc(-c3cc(C)nc(CN(C)C)c3)n2)cc(C)c1OC[C@@H](O)CNC(=O)CO
Ans: 7.40

Q: Given the molecule CCc1cc(-c2noc(-c3sc(CN(C)C)c(C)c3C)n2)cc(C)c1OC[C@@H](O)CNC(=O)CO , what is its reported pEC50?
Ans: 8.19

Q: Recorded pEC50 of CCCCN(C)Cc1cc(-c2nc(-c3cc(C)c(OC[C@@H](O)CNC(=O)CO)c(CC)c3)no2)cc(C)n1 , please.
Ans: 8.37

Q: What value of pEC50 has been reported for the following molecule? CCc1cc(-c2noc(-c3cccc(CNC)c3)n2)cc(C)c1OC[C@@H](O)CNC(=O)CO
Ans: 6.72

Q: pEC50 for CCc1cc(CN(C)CC(C)C)cc(-c2nc(-c3cc(C)c(OC[C@@H](O)CNC(=O)CO)c(CC)c3)no2)c1 ?
Ans: 8.96

Q: Return reported pEC50; argument: CCCN(C)Cc1cc(-c2nc(-c3cc(C)c(OC[C@@H](O)CNC(=O)CO)c(CC)c3)no2)ccc1C
Ans: 6.52

----------
Study system: Sphingosine 1-phosphate receptor 1 (Homo sapiens, UniProt P21453)
Protocol details: Agonist activity at human recombinant S1PR1 expressed in CHO cell membranes assessed as [35S]GTPgammaS binding preincubated for 30 mins followed by [35S]GTPgammaS addition measured after 1 hr by topcount analysis
Response field label takes YES when EC50 is strictly below 8 nM and NO in all other cases.

Reference set (2 entries):
>  <Smiles repr>
CCCN(C)Cc1sc(-c2nc(-c3cc(C)c(OC[C@@H](O)CNC(=O)CO)c(CC)c3)no2)cc1CC

>  <Label class>
YES

$$$$
>  <Smiles repr>
CCc1cc(-c2noc(-c3sc(CN(C)CC(C)C)c(C)c3C)n2)cc(C)c1OC[C@@H](O)CNC(=O)CO

>  <Label class>
NO

$$$$

Q: Strictly below 8 nM in EC50? CCc1cc(-c2nc(-c3cc(C)c(OC[C@@H](O)CNC(=O)CO)c(CC)c3)no2)sc1CN(C)C
Ans: YES

Q: Dear reviewer, please state whether CCCCN(C)Cc1cc(-c2nc(-c3cc(C)c(OC[C@@H](O)CNC(=O)CO)c(CC)c3)no2)ccc1C has EC50 strictly beneath 8 nM.
Ans: NO

Q: In plain terms, does CCc1cc(-c2noc(-c3cc(C)c(C=O)s3)n2)cc(C)c1OC[C@@H](O)CNC(=O)CO come in under 8 nM for EC50?
Ans: NO

----------
Study system: Sphingosine 1-phosphate receptor 3 (Homo sapiens)
Sequence (Q99500 whole entry): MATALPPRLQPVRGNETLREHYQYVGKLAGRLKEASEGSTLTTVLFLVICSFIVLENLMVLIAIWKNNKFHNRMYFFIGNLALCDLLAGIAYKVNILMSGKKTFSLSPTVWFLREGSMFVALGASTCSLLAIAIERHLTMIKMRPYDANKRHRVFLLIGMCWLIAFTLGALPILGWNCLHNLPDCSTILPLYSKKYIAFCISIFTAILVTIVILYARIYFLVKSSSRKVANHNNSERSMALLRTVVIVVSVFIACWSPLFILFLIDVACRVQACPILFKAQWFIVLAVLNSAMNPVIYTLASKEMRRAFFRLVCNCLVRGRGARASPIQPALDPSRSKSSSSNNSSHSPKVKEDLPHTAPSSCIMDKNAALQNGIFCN
Protocol details: Agonist activity at human recombinant S1PR3 expressed in CHO cell membranes assessed as [35S]GTPgammaS binding preincubated for 30 mins followed by [35S]GTPgammaS addition measured after 1 hr by topcount analysis
Collected EC50 values appear next to each entry.

Q: Tell me the measured EC50 of CCc1cc(-c2noc(-c3ccc(C)c(CNCC(C)C)c3)n2)cc(C)c1OC[C@@H](O)CNC(=O)CO , please.
Ans: > 10 µM

Q: Using the record for CCc1cc(-c2noc(-c3ccc(CNC)cc3)n2)cc(C)c1OC[C@@H](O)CNC(=O)CO , report its EC50.
Ans: > 10 µM

Q: Given the molecule CCc1cc(-c2noc(-c3ccc(CNC(C)C)s3)n2)cc(C)c1OC[C@@H](O)CNC(=O)CO , what is its reported EC50?
Ans: > 10 µM

----------
Quick reference: pEC50 of the listed items.
Study system: Sphingosine 1-phosphate receptor 3 (Homo sapiens)
Protocol details: Agonist activity at human recombinant S1PR3 expressed in CHO cell membranes assessed as [35S]GTPgammaS binding preincubated for 30 mins followed by [35S]GTPgammaS addition measured after 1 hr by topcount analysis
In plain terms, pEC50 is the concentration in mol/L turned into minus its base-10 logarithm.

>  <Smiles repr>
CCCCN(C)Cc1ccc(-c2nc(-c3cc(C)c(OC[C@@H](O)CNC(=O)CO)c(CC)c3)no2)cc1C

>  <pEC50>
6.46

$$$$
>  <Smiles repr>
CCCCN(C)Cc1cc(C)cc(-c2nc(-c3cc(C)c(OC[C@@H](O)CNC(=O)CO)c(CC)c3)no2)c1

>  <pEC50>
6.37

$$$$

Q: Quick one: pEC50 of CCc1cc(-c2noc(-c3ccc(CN(C)C)c(C)c3)n2)cc(C)c1OC[C@@H](O)CNC(=O)CO ?
Ans: 5.49

Q: Endpoint output: pEC50 of CCc1cc(-c2noc(-c3cc(C)cc(CN(C)CC)c3)n2)cc(C)c1OC[C@@H](O)CNC(=O)CO . Value?
Ans: 5.90

Q: pEC50 lookup needed for CCc1cc(-c2noc(-c3sc(CN(C)C)c(C)c3C)n2)cc(C)c1OC[C@@H](O)CNC(=O)CO , thanks.
Ans: 5.36

Q: Please give the measured pEC50 for this compound: CCc1cc(-c2noc(-c3ccc(CN4CCCC4)c(C)c3)n2)cc(C)c1OC[C@@H](O)CNC(=O)CO
Ans: 5.51

Q: Fill blank: measured pEC50 of the compound CCc1cc(-c2noc(-c3ccc(C)c(CN(C)CC(C)C)c3)n2)cc(C)c1OC[C@@H](O)CNC(=O)CO is ____.
Ans: 5.92

----------
Recorded EC50 by entry
Study system: Sphingosine 1-phosphate receptor 1 (Homo sapiens, UniProt P21453)
Protocol details: Agonist activity at human recombinant S1PR1 expressed in CHO cell membranes assessed as [35S]GTPgammaS binding preincubated for 30 mins followed by [35S]GTPgammaS addition measured after 1 hr by topcount analysis
API: value field is a number in nM; no unit string.

Sample records with EC50:
>  <Smiles repr>
CCNCc1ccc(-c2nc(-c3cc(C)c(OC[C@@H](O)CNC(=O)CO)c(CC)c3)no2)s1

>  <Study system>
Sphingosine 1-phosphate receptor 1 (Homo sapiens, UniProt P21453)

>  <Reported endpoint>
EC50

>  <Unit abbreviation>
nM

>  <Observed>
293

$$$$
>  <Smiles repr>
CCc1cc(-c2nc(-c3cc(C)c(OC[C@@H](O)CNC(=O)CO)c(CC)c3)no2)ccc1CN(C)C

>  <Study system>
Sphingosine 1-phosphate receptor 1 (Homo sapiens, UniProt P21453)

>  <Reported endpoint>
EC50

>  <Unit abbreviation>
nM

>  <Observed>
1.3

$$$$

Q: Entry under review: CCCN(C)Cc1cc(-c2nc(-c3cc(C)c(OC[C@@H](O)CNC(=O)CO)c(CC)c3)no2)cc(C)n1 . Reported EC50?
Ans: 8.5

Q: Consider the compound shown here: CCc1cc(-c2noc(-c3ccc(C)c(CNCC(C)C)c3)n2)cc(C)c1OC[C@@H](O)CNC(=O)CO What is its recorded EC50?
Ans: 2350

Q: Sample CCc1cc(-c2noc(-c3cc(C)nc(CN(C)CC(C)C)c3)n2)cc(C)c1OC[C@@H](O)CNC(=O)CO — what was its EC50?
Ans: 3.2

Q: # EC50 lookup, item CCCCN(C)Cc1sc(-c2nc(-c3cc(C)c(OC[C@@H](O)CNC(=O)CO)c(CC)c3)no2)cc1C
Ans: 0.7

Q: Fill blank: measured EC50 of the compound CCCN(C)Cc1cc(C)cc(-c2nc(-c3cc(C)c(OC[C@@H](O)CNC(=O)CO)c(CC)c3)no2)c1 is ____.
Ans: 4.1
